Reference for the values: PubChem BioAssay

assay overview: splicing luciferase reporter signal modulators, primary screen, spliceosome inhibition project, cell-based, HEK293, splice +/- reporter (AID 1101);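 also: HEK293 cells carrying a splicing-competent luciferase reporter gene; test concentration not given here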
run parameters: luminescence, 24 h, higher = more signal, called active from +8 up or from −8 down
Answer each item with its documented z-score.
Numbers only.

>>> test_value("C=CCNC(=O)[C@@H]1[C@H]2C(=O)O[C@H](c3ccccc3)[C@H](c3ccccc3)N2[C@H](c2ccc(OCCO)cc2)[C@@]12C(=O)Nc1ccc(C#Cc3ccc(OC)cc3)cc12")
-0.476
>>> test_value("COC(=O)[C@@]1(Cc2ccc(OC)cc2)[C@H]2c3cc(C(=O)N(C)C)n(CCN4CNCC4=O)c3C[C@H]2CN1C(=O)c1ccccc1")
2.02
>>> test_value("COC(=O)[C@@]1(Cc2ccc(F)cc2)[C@H]2c3cc(C(=O)N(C)C)n(Cc4nc5ccccc5[nH]4)c3C[C@H]2CN1C(=O)c1ccccc1")
-1.62

Provide the reported z-score of each entry below, same order.
1. CC(=O)n1cc(C(O)C2C=CC3C(=O)N(C)C(=O)C3N2Nc2ccccc2)c2ccccc21 (stereo not drawn)
2. COC(=O)c1c(CC[C@@H](CO)NC(=O)N[C@H](Cn2cc(Cc3ccccc3)nn2)C(C)C)oc(C(C)=O)c1C(=O)OC
3. NCCCCCNC(=O)[C@@H]1C[C@@H]2C(=O)N[C@@H](Cc3ccccc3)C(=O)N2[C@@H]1c1cccc(OCCO)c1
4. COc1ccc([Si](C)(C)[C@H]2[C@H](CC(=O)N3Cc4ccccc4C[C@H]3CO)O[C@@]3(C(=O)N(Cc4ccc(N5CCC5=O)cc4)c4ccccc43)[C@@H]2C)cc1
5. O=C1C2C=CC(C(O)C(c3ccccc3)c3ccccc3)N(n3cnnc3)C2C(=O)N1Cc1ccccc1 (stereo not drawn)
6. Cc1ccc(S[C@]2(C(=O)NCCN3CCOCC3)CC(=O)N(Cc3ccccc3Cl)[C@@H]2c2ccc(CO)cc2)cc1
7. O=C1O[C@H](c2ccccc2)[C@H](c2ccccc2)N2[C@H]1[C@@H](C(=O)NC[C@H](O)c1ccccc1)[C@]1(C(=O)Nc3ccccc31)[C@H]2c1ccc(OCCO)cc1
8. COc1cc(CO)cc(I)c1O[C@H]1C=C(C(=O)NCCO)C[C@@H](N(CCN2CCOCC2)C(=O)C2CCOC2)[C@@H]1O (stereo partly drawn)

Result:
1: 1.45; 2: -0.781; 3: -0.0581; 4: -0.315; 5: 0.00252; 6: -1.38; 7: 0.985; 8: -0.145

Provide the reported z-score of each entry below, same order.
1. CC(C)C[C@@H]1NC(=O)[C@H]2C[C@@H](C(=O)NCCCCCCN)[C@@H](c3ccc(O)cc3)N2C1=O
2. C[C@@]1([C@@H](NC(=O)c2ccccc2)c2ccc(-c3ccccc3)cc2)C[C@H]1C1CCCCC1

Result:
[0.823, 0.665]
